B1: Hairpin Ribozyme (parent)
chain: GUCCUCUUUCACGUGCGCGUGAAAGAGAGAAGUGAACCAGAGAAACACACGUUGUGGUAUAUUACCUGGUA

variants of: B1; assay: self-cleavage, relative activity (ratio to wild type); higher = more cleavage; co-transcriptional
Metric Name: self-cleavage

Worked cases, answers included:
- Construct Sequence: "GUCCUCUUUCACGUGCGGGUGAAAGAGAGAAGUGAACCAGAGAAACACACGUAGUGGUAUAUUACCUGGUA [C18G U53A]"
  Reported Result: 1.02
- Construct Sequence: "GUCCUCUUACACGUGCGCGUUAAAGAGAGAAGUGAACCAGAGAAACACACGUUGUGGUAUAUUACCUGGUA [U9A G21U]"
  Reported Result: 0.732
- Construct Sequence: "GUCCUCUUUCACGUGCGCGUGAAAGAGAGAAGUGAACCCGAGAAACCCACGUUGUGGUAUAUUACCUGGUA [A39C A47C]"
  Reported Result: 0.207
- Construct Sequence: "GUCCUCUUUCACGUGCACGUGAAAGAGAGAAGUGAACCAGAGAAACACACAUUGUGGUAUAUUACCUGGUA [G17A G51A]"
  Reported Result: 1.06
- Construct Sequence: "GUCCUCUUUCACGUGCGCGUGAAAGAAAGACGUGAACCAGAGAAACACACGUUGUGGUAUAUUACCUGGUA [G27A A31C]"
  Reported Result: 0.193
- Construct Sequence: "GUCCGCUUUCACUUGCGCGUGAAAGAGAGAAGUGAACCAGAGAAACACACGUUGUGGUAUAUUACCUGGUA [U5G G13U]"
  Reported Result: 0.361

Record self-cleavage per entry; entries follow.
1. GUCCUCUUUCACGUGCGCGUGAAAGAGAGAAGUGAACCAGAGAAACACCCGUUGUGGUAUAUUACCUGUUA [A49C G69U]
2. GUCCUCUUUCGCGUGCGCGUGAAAGAGAGAAGUGAACCAGACAAACACACGUUGUGGUAUAUUACCUGGUA [A11G G42C]
3. GUCCUCUUUCACGUACGCGUGAAAGAAAGAAGUGAACCAGAGAAACACACGUUGUGGUAUAUUACCUGGUA [G15A G27A]
4. GUCCUCUUUCACGUGCGCGUGAAAGAGAGAAGUGAACCAGAGAGCCACACGUUGUGGUAUAUUACCUGGUA [A44G A45C]
5. GUCCUCUUUCACGUGCGCGUGAAAGAGAGAAGUGAACCAGAGAAAAACACGUUGUGGUAUAUUAACUGGUA [C46A C65A]

0.136
0.322
0.541
0.252
0.13
